test: Pharmacokinetics in rat; assay type: in vivo, Wistar Rat; settings: male, Wistar, plasma; po, 40 mg/kg in rat; vs IV dosing; read-out: Oral bioavailability (F %)
MEASURED PROPERTY: bioavailability (%)

                            compound_smiles  measured_property  readout_number
0  Cc1nc(NC2CCCC2)sc1-c1ccnc(Nc2ccc(N3CCNCC3)cn2)n1    bioavailability              51

* * *

The reader will find reported Ki values listed item by item below.
molecular target: CDK4D1 (Homo sapiens, UniProt P11802); test: Kinase assay CDK4/D1 (radiometric or ADP Glo); conditions: apparent Ki calculated from Km (ATP) and IC50; read-out: CDK inhibition Ki CDK4D1
Sequence (P11802 whole entry): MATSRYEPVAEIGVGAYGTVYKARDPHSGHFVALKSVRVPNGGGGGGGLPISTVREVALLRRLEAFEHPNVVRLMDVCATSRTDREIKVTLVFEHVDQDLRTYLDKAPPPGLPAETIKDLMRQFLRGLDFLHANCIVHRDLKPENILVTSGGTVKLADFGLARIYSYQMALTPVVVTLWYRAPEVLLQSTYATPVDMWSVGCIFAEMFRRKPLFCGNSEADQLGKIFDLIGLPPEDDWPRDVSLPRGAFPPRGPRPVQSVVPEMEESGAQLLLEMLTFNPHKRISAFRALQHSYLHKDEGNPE
Sequence (P24385 whole entry partner): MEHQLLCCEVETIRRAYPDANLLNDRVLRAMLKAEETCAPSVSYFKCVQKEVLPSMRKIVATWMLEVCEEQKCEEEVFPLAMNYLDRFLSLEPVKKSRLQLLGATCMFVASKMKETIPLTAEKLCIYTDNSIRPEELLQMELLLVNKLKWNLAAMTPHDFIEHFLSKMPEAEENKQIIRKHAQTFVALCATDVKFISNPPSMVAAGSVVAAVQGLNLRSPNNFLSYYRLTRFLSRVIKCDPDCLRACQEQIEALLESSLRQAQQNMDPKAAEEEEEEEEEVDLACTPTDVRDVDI
MEASURED PROPERTY: Ki

>>> df
                             compound_smiles    result
 0  CNc1nc(C)c(-c2nc(Nc3ccc(N4CCNCC4)cn3)ncc2C#N)s1  0.001 µM
 1  CC(=O)N1CCN(c2ccc(Nc3nccc(-c4sc(C(C)C)nc4C)n3)nc2)CC1  0.062 µM
 2  CNc1nc(C)c(-c2nc(Nc3ccc(N4CCN(S(C)(=O)=O)CC4)cn3)ncc2F)s1  0.037 µM
 3  CC(=O)N1CCN(c2ccc(Nc3nccc(-c4sc(NC(C)C)nc4C)n3)nc2)CC1  0.021 µM
 4  Cc1nc(N(C)C)sc1-c1nc(Nc2ccc(N3CCNCC3)cn2)ncc1F  0.004 µM
 5  CNc1nc(C)c(-c2nc(Nc3ccc(N4CCNCC4)cn3)ncc2F)s1  0.004 µM
 6    Cc1nc(NC2CCCC2)sc1-c1ccnc(Nc2ccccn2)n1   0.57 µM
 7  Cc1[nH]c(=O)sc1-c1ccnc(Nc2ccc(N3CCN(C)CC3)cn2)n1  0.027 µM
 8  CCc1nc(C)c(-c2ccnc(Nc3ccc(N4CCN(C)CC4)cn3)n2)s1  0.024 µM
 9       CNc1nc(C)c(-c2nc(Nc3ccccn3)ncc2F)s1    > 5 µM
10  Cc1nc(NC2CCCC2)sc1-c1nc(Nc2ccc(N3CCNCC3)cn2)ncc1F  0.003 µM
11  Cc1nc(SC(C)C)sc1-c1ccnc(Nc2ccc(N3CCNCC3)cn2)n1   0.03 µM
12  CC(=O)N1CCN(c2ccc(Nc3ncc(C#N)c(-c4sc(C)nc4C)n3)nc2)CC1  0.119 µM
13  CSc1nc(C)c(-c2ccnc(Nc3ccc(N4CCN(C)CC4)cn3)n2)s1  0.007 µM
14  CNc1nc(C)c(-c2ccnc(Nc3ccc(N4CCN(C)CC4)cn3)n2)s1  0.005 µM
15  CC(=O)N1CCN(c2ccc(Nc3nccc(-c4sc(C)nc4C)n3)nc2)CC1  0.081 µM
16  CSc1nc(C)c(-c2ccnc(Nc3ccc(N4CCN(C(C)=O)CC4)cn3)n2)s1   0.19 µM
17  Cc1c(-c2ccnc(Nc3ccc(N4CCN(C)CC4)cn3)n2)sc(=O)n1C  0.255 µM

All values here come from patent USRE49850E1.
